AC50 values, listed per item
STUDY_TARGET: 5-hydroxytryptamine receptor 1A (Homo sapiens, UniProt P08908); also: assay procedure not described here
Sequence (P08908 whole entry): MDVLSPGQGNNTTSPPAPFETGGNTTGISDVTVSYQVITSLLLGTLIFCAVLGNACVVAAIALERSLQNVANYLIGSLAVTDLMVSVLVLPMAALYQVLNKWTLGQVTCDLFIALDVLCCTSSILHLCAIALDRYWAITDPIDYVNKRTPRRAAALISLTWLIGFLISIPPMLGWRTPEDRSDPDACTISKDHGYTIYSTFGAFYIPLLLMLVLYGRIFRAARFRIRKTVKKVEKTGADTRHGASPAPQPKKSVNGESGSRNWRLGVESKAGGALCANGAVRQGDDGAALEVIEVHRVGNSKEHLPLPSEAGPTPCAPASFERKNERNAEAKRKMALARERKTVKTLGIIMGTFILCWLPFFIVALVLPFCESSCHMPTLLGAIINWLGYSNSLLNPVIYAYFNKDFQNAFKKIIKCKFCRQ
Type: functional, cell-based

Below, 3 compounds whose answers are already recorded.
{"COMPOUND": "O=C(Nc1c(Cl)cncc1Cl)c1ccc(OC(F)F)c(OCC2CC2)c1 [ROFLUMILAST]", "STUDY_TARGET": "5-hydroxytryptamine receptor 1A (Homo sapiens, UniProt P08908)", "MEASURED_METRIC": "AC50", "REPORTED": "> 30 µM"}
{"COMPOUND": "C[C@H]1Oc2cc(cnc2N)-c2c(nn(C)c2C#N)CN(C)C(=O)c2ccc(F)cc21 [LORLATINIB]", "STUDY_TARGET": "5-hydroxytryptamine receptor 1A (Homo sapiens, UniProt P08908)", "MEASURED_METRIC": "AC50", "REPORTED": "> 30 µM"}
{"COMPOUND": "C#Cc1cccc(Nc2ncnc3cc(OCCOC)c(OCCOC)cc23)c1 [ERLOTINIB]", "STUDY_TARGET": "5-hydroxytryptamine receptor 1A (Homo sapiens, UniProt P08908)", "MEASURED_METRIC": "AC50", "REPORTED": "> 30 µM"}

# value lookup — system 5-hydroxytryptamine receptor 1A (Homo sapiens, UniProt P08908), readout AC50, item NC(=O)CCC/N=C(\c1ccc(Cl)cc1)c1cc(F)ccc1O [PROGABIDE]; also: assay procedure not described here
> 10 µM

Note, next up: CO/N=C(\C(=O)N[C@@H]1C(=O)N2C(C(=O)O)=C(COC(N)=O)CS[C@H]12)c1ccco1 [CEFUROXIME]
> 30 µM

Next compound up: Cn1c(=O)c2[nH]cnc2n(C)c1=O [THEOPHYLLINE]
> 10 µM

* * *

STUDY_TARGET: Alpha-2A adrenergic receptor (Homo sapiens, UniProt P08913); also: assay procedure not described here
Sequence (P08913 whole entry): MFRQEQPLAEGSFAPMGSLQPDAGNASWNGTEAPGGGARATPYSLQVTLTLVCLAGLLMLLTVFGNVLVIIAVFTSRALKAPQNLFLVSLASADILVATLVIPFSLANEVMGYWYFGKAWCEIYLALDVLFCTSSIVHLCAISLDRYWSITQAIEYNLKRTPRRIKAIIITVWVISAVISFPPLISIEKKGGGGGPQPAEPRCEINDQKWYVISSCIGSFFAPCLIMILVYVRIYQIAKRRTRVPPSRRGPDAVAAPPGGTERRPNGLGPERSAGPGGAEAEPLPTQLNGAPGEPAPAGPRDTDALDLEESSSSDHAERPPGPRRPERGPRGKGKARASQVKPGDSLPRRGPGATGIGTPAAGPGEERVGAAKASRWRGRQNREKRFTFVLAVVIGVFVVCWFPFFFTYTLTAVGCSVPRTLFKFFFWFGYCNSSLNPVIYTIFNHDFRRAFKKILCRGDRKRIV
Format: functional, cell-based
MEASURED_METRIC: AC50

# count of solved cases: 8
{"COMPOUND": "CCCCC1(CC)C(=O)NC(=O)NC1=O", "MEASURED_METRIC": "AC50", "REPORTED": "> 30 µM"}
{"COMPOUND": "CCCN(CC)C(CC)C(=O)Nc1c(C)cccc1C (stereo not drawn)", "MEASURED_METRIC": "AC50", "REPORTED": "> 30 µM"}
{"COMPOUND": "O=C(O)CSCC(=O)NC1CCSC1=O (stereo not drawn)", "MEASURED_METRIC": "AC50", "REPORTED": "> 30 µM"}
{"COMPOUND": "NC(=O)CCC/N=C(\\c1ccc(Cl)cc1)c1cc(F)ccc1O [PROGABIDE]", "MEASURED_METRIC": "AC50", "REPORTED": "> 10 µM"}
{"COMPOUND": "CC(C)(C)NCC(O)c1cc(Cl)c(N)c(Cl)c1 (stereo not drawn)", "MEASURED_METRIC": "AC50", "REPORTED": "> 30 µM"}
{"COMPOUND": "C#C[C@]1(O)CC[C@H]2[C@@H]3CCC4=CC(=O)CCC4=C3C=C[C@@]21CC", "MEASURED_METRIC": "AC50", "REPORTED": "11 µM"}
{"COMPOUND": "CCCOC(C(=O)OC1CCN(C)CC1)(c1ccccc1)c1ccccc1", "MEASURED_METRIC": "AC50", "REPORTED": "> 30 µM"}
{"COMPOUND": "COC(=O)[C@H](c1ccccc1Cl)N1CCc2sccc2C1", "MEASURED_METRIC": "AC50", "REPORTED": "11 µM"}

Using the record for CCCNC(C)C(=O)Nc1ccccc1C (stereo not drawn) , report its AC50.
> 30 µM

Can you check `CN(C)c1cc(CNCC(C)(C)C)c(O)c2c1C[C@H]1C[C@H]3[C@H](N(C)C)C(O)=C(C(N)=O)C(=O)[C@@]3(O)C(O)=C1C2=O` next?
> 30 µM

Here is the next compound: `CC(=O)O[C@H]1C[C@@H]2CC[C@@H]3[C@H](CC[C@@]4(C)[C@H]3C[C@H]([N+]3(C)CCCCC3)[C@@H]4OC(C)=O)[C@@]2(C)C[C@@H]1[N+]1(C)CCCCC1`
> 10 µM

Now consider CCCCCCOC(=O)CCC(=O)CN [HEXAMINOLEVULINATE] and answer again.
> 30 µM

Entry to check: `COc1cc(OC)c(C(=O)CCCN2CCCC2)c(OC)c1`
6.1 µM
